Quick reference for pKi among some compounds
target: CB1 receptor (Rattus norvegicus, UniProt P20272); construct: Whole rat brains or dissected regions from live CD rats; tissue Charles River or Pel-Freez Biologicals; host or cells: whole rat brain (CD rats), P2 membrane; test: Radioligand displacement in whole rat brain (CB1) membrane preparations; format: binding; conditions: Ki, displacement of 3H-SR141716A, whole rat brain membranes; radioligand 3H-SR141716A; Tables 1 and 2
Sequence (P20272 whole entry): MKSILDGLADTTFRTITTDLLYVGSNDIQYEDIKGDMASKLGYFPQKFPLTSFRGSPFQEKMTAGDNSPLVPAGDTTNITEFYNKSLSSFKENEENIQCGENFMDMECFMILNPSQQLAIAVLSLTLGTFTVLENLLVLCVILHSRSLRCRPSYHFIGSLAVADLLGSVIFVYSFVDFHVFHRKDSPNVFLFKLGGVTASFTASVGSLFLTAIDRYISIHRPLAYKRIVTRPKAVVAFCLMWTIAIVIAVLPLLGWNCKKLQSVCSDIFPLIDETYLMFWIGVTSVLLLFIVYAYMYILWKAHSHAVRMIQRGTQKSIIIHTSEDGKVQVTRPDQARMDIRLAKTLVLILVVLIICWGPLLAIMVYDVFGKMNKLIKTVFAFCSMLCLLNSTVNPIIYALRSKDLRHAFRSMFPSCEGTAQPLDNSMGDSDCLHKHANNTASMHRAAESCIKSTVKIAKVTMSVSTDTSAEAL
Please treat pKi as minus the base-10 logarithm of the molar concentration.

Worked set:
COMPOUND: Cc1c(C(=O)NC(C)CO)nn(-c2ccc(Cl)cc2Cl)c1-c1ccc(Cl)cc1 (single isomer, unassigned) [MF9725-106-39]
EXPERIMENTAL_RESULT: 7.00

COMPOUND: CCCCCCC(C)(C)NC(=O)c1nn(-c2ccc(Cl)cc2Cl)c(-c2ccc(Cl)cc2)c1C [MF10110-119-11]
EXPERIMENTAL_RESULT: 7.67

COMPOUND: Cc1c(C(=O)NC(C)CO)nn(-c2ccc(Cl)cc2Cl)c1-c1ccc(Cl)cc1 (single isomer, unassigned) [MF9725-105-38]
EXPERIMENTAL_RESULT: 6.91

// query Using the record for CCCCCCCCNC(=O)c1nn(-c2ccc(Cl)cc2Cl)c(-c2ccc(Cl)cc2)c1C [MF9879-164-28] , state its measured pKi.
// result 7.43

// query Give the reported value of pKi for this record: CCCCCCCNC(=O)c1nn(-c2ccc(Cl)cc2Cl)c(-c2ccc(Cl)cc2)c1C [MF9725-133-25]
// result 7.72

// query Name the recorded pKi of the item CCCCCCCCCNC(=O)c1nn(-c2ccc(Cl)cc2Cl)c(-c2ccc(Cl)cc2)c1C [MF10110-10-21] in your answer.
// result 7.05
